So I've got a bunch of compounds here, and I need their CC50 values.
Test system: AVA5 cell line
study_conditions: concentration giving 2-fold depression of neutral red dye uptake vs untreated cultures; daily treatment for three days, assessed at 72 hours; ± S.D.

Query :: I have this compound here, CCOC(=O)C(COC(C)=O)(COP(=O)(OC[C@H]1O[C@@H](n2cnc(C(N)=O)n2)[C@H](O)[C@@H]1O)OCC(COC(C)=O)(C(=O)OCC)C(=O)OCC)C(=O)OCC , and I need its recorded CC50.
Result :: 9.7 µM

Query :: # query: CC50 of entry COC(=O)[C@H](C)NP(=O)(OC[C@H]1O[C@@H](n2cnc(C(N)=O)n2)[C@H](O)[C@@H]1O)Oc1ccccc1 (some centres unmarked)
Result :: > 100 µM
